Reported pIC50 values follow for various compounds
- measurementTarget: glucosylceramide synthase (GCS) (Homo sapiens (Human))
- Sequence (Q16739 whole entry): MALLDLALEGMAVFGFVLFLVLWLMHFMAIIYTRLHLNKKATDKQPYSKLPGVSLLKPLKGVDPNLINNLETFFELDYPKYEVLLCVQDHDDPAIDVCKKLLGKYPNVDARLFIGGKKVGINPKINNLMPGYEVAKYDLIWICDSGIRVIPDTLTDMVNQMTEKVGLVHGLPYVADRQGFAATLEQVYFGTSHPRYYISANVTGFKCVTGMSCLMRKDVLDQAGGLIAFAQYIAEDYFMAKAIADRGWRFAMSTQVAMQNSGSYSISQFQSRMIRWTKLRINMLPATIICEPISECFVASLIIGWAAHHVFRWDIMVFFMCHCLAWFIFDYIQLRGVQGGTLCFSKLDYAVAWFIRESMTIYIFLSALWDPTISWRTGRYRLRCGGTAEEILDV
- protocolDetails: Evaluation of inhibitory activities against GCS (A549 cell lysate, NBD C6-ceramide, HPLC)
- Type: biochemical
pIC50: −log10 of the molar value.
reportedEndpoint: pIC50

INSERT INTO results (compound, measurementtarget, quantitativereadout) VALUES
  ('CC(C)Oc1cc(F)cc(-c2cc3c(cc2F)[C@H](NC(=O)O[C@@H]2CN4CCC2CC4)C(C)(C)C3)c1 [Example 108]', 'glucosylceramide synthase (GCS) (Homo sapiens (Human))', 8.97),
  ('CCCOc1ccc(-c2cc3c(cc2F)[C@H](NC(=O)O[C@@H]2CN4CCC2CC4)C(C)(C)C3)cc1C [Example 106]', 'glucosylceramide synthase (GCS) (Homo sapiens (Human))', 9.21),
  ('CCc1ccc(-c2ccc3c(c2)CC(C)(C)[C@H]3NC(=O)O[C@@H]2CN3CCC2CC3)cc1F [Example 33]', 'glucosylceramide synthase (GCS) (Homo sapiens (Human))', 9.01),
  ('CC(C)Oc1ccc(-c2cc3c(cc2F)[C@H](NC(=O)O[C@@H]2CN4CCC2CC4)C(C)(C)CC3)cc1Cl [Example 193]', 'glucosylceramide synthase (GCS) (Homo sapiens (Human))', 9.11),
  ('CC(C)Oc1ccc(-c2cc3c(cc2F)[C@H](NC(=O)O[C@@H]2CN4CCC2CC4)C(C)(C)C3)cc1F [Example 83]', 'glucosylceramide synthase (GCS) (Homo sapiens (Human))', 9.24),
  ('CCCCOc1ccc(-c2ccc3c(c2)CCC(C)(C)[C@H]3NC(=O)O[C@@H]2CN3CCC2CC3)cc1 [Example 145]', 'glucosylceramide synthase (GCS) (Homo sapiens (Human))', 9.54),
  ('CC(C)Cc1cccc(-c2cc3c(cc2F)[C@H](NC(=O)O[C@@H]2CN4CCC2CC4)C(C)(C)CC3)c1 [Example 189]', 'glucosylceramide synthase (GCS) (Homo sapiens (Human))', 8.98);
